Provenance of the data: the Human Domainome abundance scans (Beltran et al. 2025)

B1: Transcription factor SOX-11, residues 50 to 117; numbered along this chain, P35716 (parent)
chain: KRPMNAFMVWSKIERRKIMEQSPDMHNAEISKRLGKRWKMLKDSEKIPFIREAERLRLKHMADYPDYK

# Variants of: B1
# Method notes: abundance fitness (aPCA) (normalised: wild type 0, dead -1); higher = more abundant; growth selection in yeast, the domain comes from the species named
# Assay context: Homo sapiens
Observed property: abundance fitness

>>> val("S44W")
-0.037
>>> val("L41K")
-0.666
>>> val("R33H")
-0.008
>>> val("L34A")
-0.938
>>> val("W38Y")
-0.641
>>> val("E29L")
-0.798
>>> val("R55M")
-0.521
>>> val("M40I")
-0.605
>>> val("D24A")
-0.093
>>> val("K36T")
0.155
>>> val("K32F")
-0.329
>>> val("K36F")
-0.149
>>> val("R55I")
-0.246
>>> val("I30Q")
-0.797
>>> val("H26G")
0.22
>>> val("D24N")
-0.128
>>> val("R37K")
-0.039
>>> val("K46I")
-0.595
>>> val("S31M")
-0.333
>>> val("E29H")
-0.666
>>> val("M19W")
-0.762
>>> val("D24E")
-0.164
